Values were extracted from ChEMBL document CHEMBL1201862.

- Test system: A498
- Assay protocol: NCI tumour cell line growth inhibition, 48 h
The source made the active and inactive calls. Rule as the data show it: active = GI50 up to about 1.1 µM and inactive = higher.
Experimental endpoint: GI50

>>> result("CCOC12OC3=C(CC1CC1=C(CCC1=O)O2)C(=O)CC3 (centres undefined)")
"> 100 µM (inactive)"

Entry c1ccc2sc(SCSc3nc4ccccc4s3)nc2c1 — recorded GI50 = > 100 µM (inactive)

Entry N#CCC(=O)N/N=C\C(O)C(O)C(O)C(O)CO (centres undefined) — recorded GI50 = > 100 µM (inactive)

Entry COc1cc2c(cc1OC)C1=CCC(c3ccccc3)[N+]1(C)CC2 (centres undefined) — recorded GI50 = > 100 µM (inactive)

Entry CCN(CC)c1ccc2cc(-c3nnc(-c4ccccc4)[nH]3)c(=O)oc2c1 — recorded GI50 = 22.9 µM (inactive)

Entry CCc1ncc(CO)n1Cc1cccc2ccccc12 — recorded GI50 = > 100 µM (inactive)

Entry CC(=O)OC1[C@H](n2ccnc2)C[C@H]2[C@@H]3CC=C4CC(N5CCCC5)CC[C@]4(C)[C@H]3CC[C@]12C (some centres undefined) — recorded GI50 = 32.7 µM (inactive)

Entry O=C(O)CN1C=C(C(=O)c2cc3ccccc3n2S(=O)(=O)c2ccccc2)CCC1 — recorded GI50 = 69.3 µM (inactive)

Entry Nc1nc(N)nc(CCCCc2nc(N)nc(N)n2)n1 — recorded GI50 = > 100 µM (inactive)
